Values were extracted from the Bradley open melting point set (2014).

Parameter melting point: see the listing below.

| MOLECULE | melting point (°C) |
| --- | --- |
| N#C/C=C/C#N | 97 |
| OC1CCCCC1 [cyclohexanol] | 21 |
| Nc1ccc(F)c(Cl)c1 | 46 |
| CC(CCc1oc2c(Br)cc(Br)cc2c1-c1ccc(C)o1)=NO | 158 |
| CN1CCC(=C2c3ccccc3C=Cc3ccccc32)CC1 | 113 |
| O=C(O)CCCCCCC(=O)O | 144 |
| CC(C)CCCC(C)C1CCC2C3CC=C4CC(OCOc5ccc(Cl)cc5)CCC4(C)C3CCC12C (stereo not drawn) [3-[(4-chlorophenoxy)methoxy]cholest-5-ene] | 145 |
| COc1ccc(B(O)O)cn1 | 133 |
| c1ccc(OCC2CO2)cc1 (stereo not drawn) | 4 |
| CCCCNC(=O)NCCCC | 72 |
| C=CCCCCCCCCC | -49 |
| [O-][I+3]([O-])([O-])O | 128 |
| COC(=O)[C@H](C)O [methyl (S)-lactate] | -44 |
| C1=CCC=C1 | -97.2 |
| CCOC(=O)c1cccnc1 [ethyl nicotinate] | 9 |
| Cc1c2ccccc2cc2ccccc12 | 78 |
| CCCC(=O)NNc1ccccc1 [N'-phenylbutanehydrazide] | 104 |
| Nc1cc(Cl)cc(Cl)c1 | 53 |
| O=C1OC2(c3ccc(O)cc3Oc3cc(O)ccc32)c2ccccc21 | 315 |
| CC(=O)CC(=O)OC(C)C [isopropyl acetoacetate] | -27 |
| COc1cccc(OC)c1CN | 85 |
| C=CCCCC | -140 |
| NC(N)=S | 176 |
